The reported numbers originate from the supplement of paper PMC13380429.

tested on: Caco-2; assay: cell viability relative to DMSO; higher = less toxic; settings: 72 h; 10 nM
Property Name: cell viability
Number plus unit, in that order.

Q) Supply cell viability value. Item: O[C@H]1[C@H](O)[C@@H](O)[C@H](O)[C@@H](O)[C@H]1O
A) 111%

Q) Supply cell viability value. Item: Cc1ccc(S(=O)(=O)Nc2ccc3c(c2)c(C(=O)C(F)(F)F)cn3CC(=O)N[C@@H](CC(C)C)C(=O)O)cc1
A) 103%

Q) Supply cell viability value. Item: CCOC(=O)c1ncn2c1[C@@H]1CCCN1C(=O)c1cc(OC)ccc1-2
A) 95.8%

Q) Supply cell viability value. Item: NCCCC[C@H](N)C(=O)O
A) 102%

Q) Supply cell viability value. Item: CN1[C@@H]2CC[C@H]1C[C@@H](OC1c3ccccc3CCc3ccccc31)C2
A) 97.5%

Q) Supply cell viability value. Item: CC(C)c1nc(CN(C)C(=O)N[C@H](C(=O)N[C@@H](Cc2ccccc2)C[C@H](O)[C@H](Cc2ccccc2)NC(=O)OCc2cncs2)C(C)C)cs1 [Ritonavir]
A) 90.5%

Q) Supply cell viability value. Item: COc1cccc(-c2cc(=O)c3ccccc3o2)c1N
A) 108%

Q) Supply cell viability value. Item: NC(=O)NCCN1CCN(c2cccc(C(F)(F)F)c2)CC1
A) 86.5%

Q) Supply cell viability value. Item: Fc1ccc(C(OCCN2CCN(C/C=C/c3ccccc3)CC2)c2ccc(F)cc2)cc1
A) 100%
